What TGI was measured for each of the following?
# Test system: MDA-MB-435
# test: NCI tumour cell line growth inhibition, 48 h
Answer format: numeric, µM implied, no suffix.

Input: What does the data say about its TGI? Entry: `Fc1ccc2c3c([nH]c2c1)CCN(Cc1ccccc1)C3`
Output: 34.3

Input: Repeat for the following compound: `CN(CCCNC(=O)c1cn(C)c2c1Cc1ccccc1-2)CCCNC(=O)c1cn(C)c2c1Cc1ccccc1-2`
Output: 5.16

Input: Entry to check: CCCCc1ccc(Nc2nc(OC)c3ncn(C4CC(O)C(CO)O4)c3n2)cc1 (stereo not drawn)
Output: 36.6

Input: Query C=CCOC(=O)C1=C(C)NC2=N[C@H](CCCCCCCCC)C[C@@H]3CCC1N23 (stereo partly drawn) next
Output: 44.5

Input: Moving on to `N#Cc1cnc(Nc2cc(NC[C@H]3CNCCO3)c(C(F)(F)F)cn2)cn1`
Output: 27.2
